# Target or test system: BCL-XL (Homo sapiens, UniProt Q07817)
# Construct: endogenous in cells; host or cells: MOLT-4
# Sequence (Q07817 whole entry): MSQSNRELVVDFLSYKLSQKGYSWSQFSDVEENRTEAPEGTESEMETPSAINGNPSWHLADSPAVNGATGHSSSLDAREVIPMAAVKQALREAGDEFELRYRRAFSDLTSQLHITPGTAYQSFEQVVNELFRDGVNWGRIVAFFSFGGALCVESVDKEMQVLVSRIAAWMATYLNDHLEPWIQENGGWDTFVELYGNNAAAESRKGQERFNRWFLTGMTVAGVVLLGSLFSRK
# Method description: Bcl-xL ELISA degradation in MOLT-4 cells, 6 h
# Format: cell-based
# Conditions: read-out: Bcl-xL ELISA in MOLT-4 degradation 6 h: Mean external-Abs DC50
Reported endpoint: DC50

Recorded DC50, per entry:
>  <Compound>
C#Cc1ccc(CNC(=O)[C@@H]2C[C@@H](O)CN2C(=O)[C@@H](NC(=O)C2CN(c3ccc(S(=O)(=O)NC(=O)c4nc(N(C)c5cc(C)c(Nc6nc7ccccc7s6)nn5)ccc4-c4cnn(CC56CC7CC(CC(C7)C5)C6)c4C)cc3)C2)C(C)(C)C)cc1

>  <Reported endpoint>
DC50

>  <Reported result>
< 0.01 µM

$$$$
>  <Compound>
Cc1cc(N(C)c2ccc(-c3cnn(CC45CC6CC(CC(C6)C4)C5)c3C)c(C(=O)NS(=O)(=O)c3ccc(N4CC(C(=O)N[C@H](C(=O)N5C[C@H](O)C[C@H]5C(=O)NCc5ccc(-c6scnc6C)cc5)C(C)(C)C)C4)cc3)n2)nnc1Nc1nc2ccccc2s1

>  <Reported endpoint>
DC50

>  <Reported result>
0.01 to 0.1 µM

$$$$
>  <Compound>
C#Cc1ccc(C2(NC(=O)[C@@H]3C[C@@H](O)CN3C(=O)[C@@H](NC(=O)CCCCCS(=O)(=O)NC(=O)c3nc(N(C)c4cc(C)c(Nc5nc6ccccc6s5)nn4)ccc3-c3cnn(CC45CC6CC(CC(C6)C4)C5)c3C)C(C)(C)C)CC2)cc1

>  <Reported endpoint>
DC50

>  <Reported result>
< 0.01 µM

$$$$

Okay, now this compound:
Lookup: DC50 / BCL-XL (Homo sapiens, UniProt Q07817) / Cc1cc(C(C(=O)N2C[C@H](O)C[C@H]2C(=O)NCc2ccc(-c3scnc3C)cc2OCCN(C)C2CCN(C(=O)c3nc(N4CCc5cccc(C(=O)Nc6nc7ccccc7s6)c5C4)ccc3-c3cnn(CC4CCCCC4)c3C)CC2)C(C)C)on1 (stereo partly shown) 0.1 to 0.5 µM
